Biological target: LXRβ (Homo sapiens, UniProt P55055)
Construct: Co-transfection expression plasmids, comprising full-length LXRα (pCMX-h LXRα[…] or LXRβ (pCMX-hLXRβ)); expressed in transfected cells; host or cells: CV-1 African Green Monkey Kidney Cells
Sequence (P55055 whole entry): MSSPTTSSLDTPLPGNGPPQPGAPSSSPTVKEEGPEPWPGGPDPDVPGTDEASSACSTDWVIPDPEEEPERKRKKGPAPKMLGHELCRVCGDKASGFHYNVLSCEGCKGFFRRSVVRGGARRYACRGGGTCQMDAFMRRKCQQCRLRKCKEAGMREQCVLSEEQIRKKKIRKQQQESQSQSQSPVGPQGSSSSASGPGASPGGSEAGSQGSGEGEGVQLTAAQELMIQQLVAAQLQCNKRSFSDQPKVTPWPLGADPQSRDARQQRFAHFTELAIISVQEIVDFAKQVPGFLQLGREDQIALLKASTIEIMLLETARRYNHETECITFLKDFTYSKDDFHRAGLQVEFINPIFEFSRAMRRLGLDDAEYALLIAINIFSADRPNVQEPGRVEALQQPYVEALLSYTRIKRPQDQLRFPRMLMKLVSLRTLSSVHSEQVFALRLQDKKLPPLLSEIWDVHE
Sequence (P19793 whole entry partner): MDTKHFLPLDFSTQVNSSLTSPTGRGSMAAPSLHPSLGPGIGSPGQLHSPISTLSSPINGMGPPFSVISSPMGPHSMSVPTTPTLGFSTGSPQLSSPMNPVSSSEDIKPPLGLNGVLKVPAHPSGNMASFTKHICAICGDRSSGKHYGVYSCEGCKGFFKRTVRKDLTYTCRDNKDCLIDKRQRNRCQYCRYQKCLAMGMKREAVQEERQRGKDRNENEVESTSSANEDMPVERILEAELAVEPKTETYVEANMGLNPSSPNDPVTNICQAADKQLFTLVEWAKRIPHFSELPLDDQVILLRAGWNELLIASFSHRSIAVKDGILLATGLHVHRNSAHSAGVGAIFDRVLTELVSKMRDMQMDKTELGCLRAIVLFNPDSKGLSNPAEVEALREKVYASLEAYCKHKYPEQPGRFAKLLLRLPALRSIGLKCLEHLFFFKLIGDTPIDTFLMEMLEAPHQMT
Test: Co-transfection assay (LXRE luciferase reporter), LXRβ
Assay type: cell-based
Details: LXRβ co-transfection; relative to high control 1-(2,4-difluorobenzyl)-2-oxo-6-(4-phenoxyphenyl)-4-(trifluoromethyl)-1,2-dihydropyridine-3-carbonitrile; read-out: % Efficacy
measure-name: Emax (%)

In the examples that follow, each entry is paired with its recorded Emax.
INSERT INTO measurements (mol, measure_name, unit_of_measure, observed) VALUES
  ('Cc1nc(C(F)(F)F)cn1-c1ccc(-c2cc(F)c(CO)c(S(C)(=O)=O)c2)cc1-n1nncc1C(=O)c1cccc(C(F)(F)F)c1', 'Emax', '%', 69),
  ('Cc1nc(C(F)(F)F)cn1-c1ccc(-c2cc(F)c(CO)c(S(C)(=O)=O)c2)cc1-c1oc(CCO)nc1-c1ccc(OC(F)(F)F)cc1', 'Emax', '%', 64),
  ('Cc1nc(-c2cc(-c3cc(F)cc(S(C)(=O)=O)c3)ccc2-n2cc(C(F)(F)F)nc2C)c(-c2ccc(OC(F)F)c(F)c2)o1', 'Emax', '%', 73),
  ('Cc1nc(C(F)(F)F)cn1-c1c(F)cc(-c2cc(Cl)c(CO)c(S(C)(=O)=O)c2)cc1-n1nncc1-c1ccc(OC(F)(F)F)cc1', 'Emax', '%', 76),
  ('Cc1nc(C(N)=O)cn1-c1ccc(-c2cc(F)c(CO)c(S(C)(=O)=O)c2)cc1-c1nc(C2CC2)oc1-c1ccc2c(c1)OC(F)(F)O2', 'Emax', '%', 54),
  ('Cc1nc(-c2cc(-c3cc(F)c(CO)c(S(C)(=O)=O)c3)ccc2-n2cc(C(F)(F)F)nc2C)c(-c2ccc(OC(F)F)c(OC(F)F)c2)o1', 'Emax', '%', 56),
  ('Cc1nc(C(F)(F)F)cn1-c1ccc(-c2cccc(S(C)(=O)=O)c2)cc1-n1nncc1-c1cccc(C(F)(F)F)c1', 'Emax', '%', 116),
  ('Cc1cn(-c2ccc(-c3cccc(S(C)(=O)=O)c3)cc2-n2nncc2-c2ccc(OC(F)(F)F)cc2)c(C)n1', 'Emax', '%', 69);

I. COC(=O)c1ccc(-c2cnnn2-c2cc(-c3cccc(S(C)(=O)=O)c3)ccc2-n2cc(C(F)(F)F)nc2C)cc1
II. Cc1nc(-c2cc(-c3cccc(S(C)(=O)=O)c3)ccc2-n2cc(C(F)(F)F)nc2C)c(-c2ccc(SC(F)(F)F)cc2)o1
III. Cc1nc(C(F)F)c(Cl)n1-c1ccc(-c2cccc(S(C)(=O)=O)c2)cc1-n1nncc1-c1ccc(OC(F)(F)F)cc1
Order the records, beginning with the lowest Emax and ending with the highest. Order the labels as requested and list them. II, I, III
